Source listed as BigSolDB 2.1.

# measurement-setup: in ethyl acetate, 288.15 K
parameter: solubility (mole fraction)

QUERY: Query (compound): N#Cc1cccc([N+](=O)[O-])c1 ; field requested: solubility (mole fraction)
RESULT: 0.0565

---

# measurement-setup: in isopropanol, 313.15 K
parameter: solubility (mole fraction)

QUERY: Query (compound): N#Cc1cccc([N+](=O)[O-])c1 ; field requested: solubility (mole fraction)
RESULT: 0.00905

---

# measurement-setup: in cyclohexane, 293.15 K
parameter: solubility (mole fraction)
Reply: number alone, nothing else.

QUERY: Query (compound): N#Cc1cccc([N+](=O)[O-])c1 ; field requested: solubility (mole fraction)
RESULT: 0.000599
